# Test system: K4 kissing-loop RNA reporter;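 further: bound reporter read as fluorescence of individual clusters on recovered sequencing chips by microscopy, with normalized cluster intensities fitted with a binding model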
# method description: apparent KD of K4 kissing-loop reporter; higher = weaker reporter binding
# run parameters: Eterna round: R107; input ligand: none
Collected apparent KD of K4 kissing-loop reporter values appear next to each entry.
Lab book: enter the figure in nM, no units written.

Guide cases for apparent KD of K4 kissing-loop reporter, answers given:
AAAUUUUCAAGUGAUACCAGACAUUUUUAUUUCUUUAUUUAUGCUAAGUGAUGUUUAGCAGUCCCUUGGCAGCACUAUUUAAUUA [JR_Nu_SSTheophyB_Sub030]    141
CUUGAUCGAGGAAGGAGCGGGCCGUCAUUGAGCGCAGUGAUGUUGCGUUCGACUAGUCGAGCCCAGGUAGGUCGCCUGGAGUAAG [Lazalaa]    98.2
AAGGGCGAGGUAACGUGGAUAUCUCGUCGCAAGGAUAUCUGGAAACAGAGAAGGUGCGACAUCACCGGCAGUGAUGUUGCUGGGC    233
CGCAGUGAUGUUGUGAUUAACUACAGGGAAGGAGCGUGCUAGAGCACAGGUAGGUCGCCCAGUGGCCGAGUGAUGUUCGGCGGGU [Same State Arginine A GF 27]    227
UUAUAUAUAUCAGAUACCAGUAUAAUGGAAACAAAUUAUGUUAUGAGUGAUGUUCAUGUAUGCCCUUGGCAGCUGGUAUGGGUUU [KL-XTheo-B20]    362

## Input Identify measured apparent KD of K4 kissing-loop reporter corresponding to UUUAAAUAUAGUGAUGUUAUAUAACAAUGACGAGGACCGGUACGGCCGCCACUCGAGAGAGAUAAUGGUCAUACAAAUGUAUGUC [AstrosSSTryA#7]
## Output 1100

## Input Identify measured apparent KD of K4 kissing-loop reporter corresponding to UGUCAUUGGUCGGCCGCCACUAGGACCGGGUAUAACCUAGUGAUGUUAGUAAGUACGGCCGCCACUAGGACCGGGACCGAUGACU [KL-SSTryp-B19 #DoubleAptamer]
## Output 583
